Reference for the values: the nanobody polyreactivity screen of Harvey et al. (2022)

assay: yeast display, Sf9 membrane polyspecificity reagent, FACS + sequencing; frameworks hold sequencing errors

SEQUENCE RECORD	polyreactivity (PSR sort gate)
QVQLVESGGGLVQAGGSLRLSCAASGIILGRYAMGWYRQAPGKERELVAAITASGGRTYYADSVKWRFTISRDNAKNTVYLQMNSLKPEDTAVYYCNTVYWGYKSHYDYWGQGTQVTVSS	high polyreactivity
QVQLVESGGGLVQAVGSLRLSCAASGSTFGKNAMGWYRQAPGKERELVAAISTSGTRSFYADSVKGRFTISRDTAKNTVYLQMNSLKPEDTAVYYCNAGRSSRAYYYWGQGTQVTVSS	high polyreactivity
QVQLVESAGGIVQAGGSLRLSCAASGSTFGVYAMGLYRQAPGKERELVASISSGDSTTYADSVKGRFTISRDNAKNTVYFQMNSLKPDVTAVYYCNAVYYTGYYWGHGTQVTVSS	low polyreactivity
QVQLVESGGGLVQAGGSLRLSCAASGSTFGFYAMGWYRQAPGKERELVAVISSGGGTNYADSVKGRFTISRDNAKNTVYLQMNSLKPEDTAVYYCAASRFALSGGYDYWGQGTQVTVTS	low polyreactivity
QVQLVESGGGLVQAGGSLRLSCAASGRTFAYNTMGWYRQAPGKERELVAAITSGGSTYYADSVKGRFTISRDNAKNTVYLQINSLKPEDTAVYYCSAVDYWDYFYWRDDYWGQGTQVTVSS	low polyreactivity
QVQLVESGGGLVQAGGSLRLSCAASGRIFSQYAMGWNRQAPGKERELVAAITWRGASTYYADSVKGRFTISRDNAKNTVYLQMNSLKPEDTAVYYCAAGYPQGRYYRVRWVGYWGQGTQVTVSS	high polyreactivity
QVQLVESGGGLVQAGGSLRLSCAASGRIFPTNAMGWYRQAPGKERELVASITRSGSTYYADSVKGRFTISRDNAKNTVYLQMNSLKPEDTAVYYCAAYAYIFLDWGGYPYYLYEYDYWGQGTQVTVSS	low polyreactivity
QVQLVESGGGLVQAGGSLRLSCAASGFIFRSYAMGWYRQAPGKERELVAANSSSGGRTYYADSVKGRFTISRDNAKNTVYLQMNSLKPEDTAVYYCATSLYTDNSWDNYWGQGTQVTVSS	high polyreactivity
QVQLVESGGGLVQAGGSLRLSCAASGSTFARYAMGWYRQAPGKERELVAGISTSGGRTYYADSVKGRFTISRDNAKNTVYLQMNSLKPEDTAVYYCAKALSQTWYDGQYGYWGQGTQVTVSS	low polyreactivity
QVQLVESGGGLVQAGRSLRLSCAASGSIISVYAMGLYRQAPGKERELVADITGTGDTYYADSVKGRFTISRDNAKNTVYLQMNSLIPEDTAVYYCNTVYELYYDPSVTEDYWGQGTQVTVSS	low polyreactivity
QVQLQESGSGLVQAGGSLRLSCAASGYISLGDNMGWYRQAPGKDREFGATISVGGITYYVDSVKGRFTISRDIAKNTVYLQMNSLTPEDTAVYYCAALEIYYFRYYYWGQGTQVTVSS	low polyreactivity
QVQLVESGGGLVQAGGSLRLSCAASGSTYSYYVMGWYRQAPGKERELVAAISRSGGRTYYADSVKGRFTISRDNAKNTVYLQMNSLKPEDTAVNYCAAREFDHPPYDYWGQGTQVTVSS	high polyreactivity
QVQLGESGGGLVQAGGSLRLSCAASGSIFEVYAMGWYRQAPGKERELVAAINYTGGSTYYADSVKGRFTISRDNAKNTVYLQMNSLKPEDTAVYYCARDTSGIGTRYDYWGQGTQVTLSS	low polyreactivity
QVQLVESGGGLVQAGGSLRLSCAASGSIFDLNAMGWYRQAPGKERELVAAISKSGGSTYYADSVKGRFTISRDNAKNTVYLQMNSLKPEDTAVYYCAARYHYPGNWYNYWGQGTQVTVSS	low polyreactivity
QVQLVESGGGLVQAGGSLRLSCAASGGIISINAMGWYRQAPGKERELVAAISWGDGITYYADSVKGRFTTSRDNAKNTVYLLMTSLKPEDTAVYYCAKDIGTRLGPAGYDYWGQGTQVTVSS	low polyreactivity
QVQLVESGVGLVQAGGSLRLSCAASGFTFMKNAMGWYRQAPGKERELVAAITSSGGRPYYADSVKGRFTISRDIAKNTVYLQMNSLKPEDTAVYYCNKGPLPGYDYWGQGTQVTVSS	high polyreactivity
QDQLLESGAGLVQAGGSLRLSCAASGRIFDYNVMGWYRQAPGKERELVADITSSGGSTYYADSVKGRFTISRDNAKNTVYLQMNSLKPEDTAVYYCYISYFTIYDDFYYWGQGTQVTVSS	low polyreactivity
QVQLVESGGGLVQAGGSLRLSCAASGGTLFTNAMGWYRQAPGKERELVAAISWRGGRTYYADSVKGRFTISRDNAKNTVYLQMNSLKPEDSAVYYCAADVSAVQGYYYWGQGTQVTVSS	low polyreactivity
QVQLVDSGGGLVQAGGSLRLSCSASGYTFALYSMGWYRQAPGKERELVADINIGGASTYYADSVKGRFTISRDNAKNTVYLQMNSLKPEDTAVYYCAKEYYDGYFPTFDYDYWGQGTQVTVSS	low polyreactivity
QVQLVESGGGLVQAGGSLRLSCAASGSTFWKYAMGWYRQAPGKERELVAAINTSGGRTYYADSVKGRCTISRDNAKNTVYLQMNSLKPEDTAVYYCNARQGITYKDGRSIKYDYWGQGTQVTGSS	high polyreactivity
QVQLVESGGGLVQAGGSLRLSSAATGRTFASNAMGWYRQAPGKERELVAAIRYRGDRTSYADSVKGRFTISRDNAKNTVYLQMNSLKPEDTAVYYCAAYYNSHGLDYWGQGTQVNVSS	low polyreactivity
